Subject Of Test: Factor XIa (FXIa) (UniProt P03951;P03951 P03951:19-387,P03951:388-625)
Sequence (P03951 19-387, chain 1 of 2): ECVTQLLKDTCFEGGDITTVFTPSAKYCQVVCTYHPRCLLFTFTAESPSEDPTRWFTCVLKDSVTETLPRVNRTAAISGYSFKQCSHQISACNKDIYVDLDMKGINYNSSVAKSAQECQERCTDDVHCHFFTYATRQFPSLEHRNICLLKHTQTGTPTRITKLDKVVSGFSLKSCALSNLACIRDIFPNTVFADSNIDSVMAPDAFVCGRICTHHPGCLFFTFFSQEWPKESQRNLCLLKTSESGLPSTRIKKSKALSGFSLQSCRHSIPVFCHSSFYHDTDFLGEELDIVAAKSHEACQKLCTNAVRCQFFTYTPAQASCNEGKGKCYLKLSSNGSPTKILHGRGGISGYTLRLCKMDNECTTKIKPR
Sequence (P03951 388-625, chain 2 of 2): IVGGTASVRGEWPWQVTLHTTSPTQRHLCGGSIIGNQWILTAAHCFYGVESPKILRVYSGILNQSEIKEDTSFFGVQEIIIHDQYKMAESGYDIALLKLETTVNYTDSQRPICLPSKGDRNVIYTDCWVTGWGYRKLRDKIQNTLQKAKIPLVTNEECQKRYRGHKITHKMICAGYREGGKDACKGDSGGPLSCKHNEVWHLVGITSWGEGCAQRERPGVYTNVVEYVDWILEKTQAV
Assay Protocol: inhibition; competitive inhibition of S2366 amidolysis; PPNE pH 7.4, 37 C
Condition Parameters: chain copies: 2,2; predicted stem-loop hairpin with bulge and two small loops
Method: The mode of inhibition of FELIAP was investigated by fixing the concentrations of chromogenic substrate and FXIa and increasing the concentration of FELIAP and measuring the rate of substrate cleavage. A dose-dependent reduction in the reaction rate was observed as FELIAP was increased from 0 to 20 μM, while the same concentrations of SCRAPT had no inhibitory effect (FIG. 2A). […]
Recorded Metric: Ki (µM)
Form entry: value (µM) — number only.

Per the record, FELIAP (Apt10-10) (ssDNA) DNA: GAATTCTAATACGACTCACTATAAACCTATCGGACTATTGTTAGTGATTTTTATAGTGTGCGTCCAACACATCG has Ki of 29
